experimentDescription: yeast display, Sf9 membrane polyspecificity reagent, FACS + sequencing; frameworks hold sequencing errors
readoutName: polyreactivity (PSR sort gate)

Worked cases, polyreactivity (PSR sort gate) given:
• QVQLVESGGGLVQAGGSLRLSCAASGIIFKQYAMGWYRQAPGKERELVAAITGSGGRTTYADSVKGRFTISRDNAMNTVYLQMNSLKPEDTAVYFCAAVGLSGWRDGYWGQGTQVTVSS = high polyreactivity
• QVQLVESGGGLVQAGGSLRLICAASGRTFAGNAMGWYRQAPGKERELVAAITWSGGSTYYADSVKGRFTISRDNAKNTVYLQMNSLKPEDTAVYYCAADSQPPHELYESIEHESWGQGTQVTVSS = low polyreactivity
• QVQLVESGGGLVQAGGSLRLSCAASGRIFHFIAMGWYRQAPGKERELVATITKRGGRTYYADSVKGRFTISRDNAKNTVYLQMNSLKPEDTAVYYCNADQSRYSAVSGYDYWGQGTQVTVSS = high polyreactivity
• QVQLVESGGGLVQAGGSLRLSCAASGSTLITNDMGWYRQAPGKERELVATITYGTGSTYYADSVKGRFTISRDNAKNTVYLQMNSLKPEDTAVYYCNARRNYPKDSDGYDYWGQGTQVTVSS = low polyreactivity
• QVQHVESGGGIVQAGGSLRLSCAASGRIFDSNAMGWYRQAPGKERELVAAITTSGGSTFYADSVKGRFTISRDNAKNTVYLQMNSLKPEDTAVYYCAAGYSYYYHAIFPFDYWGQGTQVTVSS = high polyreactivity

What polyreactivity (PSR sort gate) value was documented for this sequence, QVQLVESGGGLVQAGGSLRLSCAASGRIFGFYTMGWYRQAPGKERELVAVINRGGRTYYADSVKGRFTISRDNAKNTVYLQMNSLKPEDTAVYYCAADYYTQGAYRGMDYWGQGTQVTVSS ?
high polyreactivity

What do we get for QVQLVESGGGLVQAGGSLRLTCAASGRTFVENAMGWYRPATGKERELVAAITYSGGGTYYADSVKGRFTISRDNAKNTVYLQMNSVKPEDTAVYDCAATIPYSLDGYDYWGQGTQVTVSS ?
low polyreactivity

Would you mind doing QVQLVESGGGLVQAGGSLRLSCAASGLIFYKNTMGWYRQAPGKERELVATITGRGGRTYYADSVKGRFTISRDIAKNSVYFQMNSLKPEDTAVYYCAARNQGRGYYWGQGTQVTVSS as well?
high polyreactivity

# repeat for QVQLVESGGGLVQAGGSLRLSCAASGRIFIVNAMGWYRQATGKERELVAAISYRGGSTYYADSVKGRFTISRDNAKNTVYLQMNRLKPEDTAVYYCAADRYSYLGYPYEYEYWGQGTQVTVSS
low polyreactivity

Also, QVQLVESGGGLVQAGGSLRLSCAASGIIFYLYAMGWYRQAPGKERELVAPITTGGRTNYADSVKGRFTISRDNAKNTVYLQMNSLKPEDTAVYYCAATHRGQGGYYWGQGTQVTVSS please.
low polyreactivity

* * *

experimentDescription: yeast display, Sf9 membrane polyspecificity reagent, FACS + sequencing; frameworks hold sequencing errors
readoutName: polyreactivity (PSR sort gate)

Known polyreactivity (PSR sort gate) results, listed for orientation:
- QVQLVESGGGLVQAGGSLRLSCAASGNIFGKNVMGWYRQAPGKEREFVAAITSRGGRTNYADSVKGRFTISRDNAKNTVYLQMNSLKPEDTAVYYCATRYKSPSFDYWGQGTQVTVSS: high polyreactivity
- QVQRVESGGGLVQAGGSLRLSCAASGITFWPYAMGWYRQAPGKERELVAAIRASVGRTYYADSVKGRFTISRDNAKNTVYLQMNSLKPEDTAVYYCNAYGRYGKFRVEYDYWGQGTQVTVSS: low polyreactivity
- QVQLVQSGGGLVQAGGSLRLICAASGGTFSYNTMGWYRQAPGKVRELVAVITFSGGSTYYADCVKGRFTISRDNAKNTVYLQMNSLKQEDTAVYYCAADWLSKYDYWGQGTQVTVSS: low polyreactivity
- QVQLVDSGGGLVQAGGSLRLSSAASGRTLVNYAMGCYRQAPGKERELVAAISYSGGSTYYADSVKGRFTISRDNAKNTVYLQMNSLKPEDTAVYYCAAYYYQRYDYWGQGTQVTVSS: high polyreactivity
- QVQLVESGGGLVQAGGSLRLSCAASGSTFCDYAMGWYRQAPGKERELVAAISSGGSTNYADSVKGRFTISRDNAKNTVYLQMNSLKPEDTAVYYCAVGYGGYYYWGQGTQVTVSS: high polyreactivity
- QVQLVESGGGLVQAGGSLRLSCAASGSTFQDNAMGWYRQAPGKERELVAVITRTGGDTNYADSVKGRFTISRDNAKNTVYLQMNSLKPEDTAVYYCAADNVYVTWFYYWGQGTQVTVSS: low polyreactivity
- QVQLVESGGGLVQAGGSLRLICAASGITTRSNAMGWYRQAPGKERDFVAAITSRGGSTYYAYSVKGRFTISRDNAKNTVYLQMNSLKPEDTAVYYCAKGKYPDKKSRHVTLYDYWGQGTQVTVSS: high polyreactivity
- QVQLVESGGGLVQAGGSLRISCAASGRTFRPYPMGWYRQAPGKDRELVAAIDSSGTSTYYADSVKGRFTISRDNAKNTVYLQMNSLKPEDTAVYYCAKAWPDHWYSRYDYWGQGTQVTVSS: low polyreactivity
- QVQLVESGGGLVQAGGRLRLSCAASGIIFDTYVMGWYRQAPGKERELVAAITRSGGRTRYADSVKGRFTISRDNAKNTVYLQMNSLKPEDTAVYYCAARIPDRQDGYGYWGQGTQVTVSS: high polyreactivity
- QVQLQESGDGLVQAGGSLRLSSAASGTIFSDYGMGGYRQAPGKERELLAGISDGCNTNYTDSVKGRFTISRDNAHRVSADELPETGVYRGVLLRGCERWLLFYVYWGQGTQVTVSS: high polyreactivity

Please find the next sequence below.
Would you mind telling me what polyreactivity (PSR sort gate) value was observed for QVQLVESGGGLVQAGGSLRLSCAASGSICRYYDMGWYRQAPGKERELVAAISRSGGSTYYADSVKGRFTISRDNAKNTVYLQMNSLKPEDTAVYYCNVDQFRYREDDYWGQGTQVNVSS ?
high polyreactivity

* * *

experimentDescription: yeast display, Sf9 membrane polyspecificity reagent, FACS + sequencing; frameworks hold sequencing errors
readoutName: polyreactivity (PSR sort gate)

Record excerpt, results attached:
- QVQLVESGGGLVQAGGSLRLSCSASGFIFGTNTMGWYRQAPGKEWELVAAITSVGSTNYADSVKGRFTISRDNAKNTVYLQMNSLKPEDTAVYYCPATLYYQYGGDYWGQGTQVTVSS: low polyreactivity
- QVQLVESGGGLVQAGGSLRLSCAASGFIFYDYAMGWYRQAPGKERELVAVITSGGSTYYADSVKGRFTISRDNAKNTVYLQMNSLKPEDTAVYYCNADWVFTWYDYPNDTYDYWGQGTQVTVSS: low polyreactivity
- QVQLVESGGGLVQAGGSLRLSCAASGRIFTHNAMGWYRQAPGKERELVAAITSGGRTTYADSVKGRFTFSRDNAKNTVYLQMIRLKPEDTAVYYCNADTGLGSLDFDNRDYWGQGTQVTVSS: low polyreactivity
- QVQLVESGGGLVQAGGSLRLSCAASGRTSEIYTMGWYRQAPGKERELVASINTNYADSVKGRFTISRDNAKNTVYLQMNSLKPEDTAVYYCNADDTIEFNYWGQGTQVTVSS: low polyreactivity
- QLQIVESGGGLVQAGGSLRLSCAASGRIFSYNAMGWYIQAPGKARELVAAITFSGGGTYYADSVKGRFTISRDNAKNTVYLQMNSLNPEYTAVYYCNKVSYGYSTYGYWGQCTQVTVSS: low polyreactivity

Look up polyreactivity (PSR sort gate): QVQLEESGGGLVQAGGSLRLSCAASGSTVWANAMGWYRPAPGKERELVAAITSTGITYYADSVKGRFTISRDNAKNTVYLQMNSLTPEDTAVYYCAASFPGAGYGMDYWGQGTQVTVSS
low polyreactivity

Now the sequence QVQLQESGGGLVQAGGSLLSCAASGTISWVDEMGWYLQAPGNERELVAGIAGGGNTNYADSVKGRFTISRDNAKNTVYLQMNSLDTAVYYCAVVGFGRGTHIYWGQGTQVTVSS
high polyreactivity

Similarly, QVQLVESGGGLVQAGGSLRLSCAASGFIFRYYAMGWYRQAPGKERELVAAISGSGGSTYYADSVKGRFTISRDNAKNTVYLQMNSLKPEDTAVYYCNKGRGRVYGIYDYWGQGTQVTVSS ?
high polyreactivity

Moving on to the next sequence: QVQLVESGGGLVQAGGSLRLSCAASGFTFPYYTMGWYRQAPGKERELVAAINRGGGSTYYADSVKGRFTISRDNAKNTVYLHMNSLKPEDTAVYYCACLRCLFPGRFDYWGQSTQVTVSS
high polyreactivity

* * *

experimentDescription: yeast display, Sf9 membrane polyspecificity reagent, FACS + sequencing; frameworks hold sequencing errors
readoutName: polyreactivity (PSR sort gate)

Examples with answers:
- QVQIEESGGCLVQAGGSLRLSCAASGNTFFKYNMGWSRQAPRKERELVAAITWSGGSTSYADSVKGRFTISRDNAKNTVYLQMNSLKPEDTAVYYCAAAWSHSRWDTHDYWGQGTQVTVSS: low polyreactivity
- QVQLVESGGGLVQAGGSLRLSCAASGFTFQYYAMGWYRQAPGKERELVAAISGTSGSTRYADSVKGRFTISRDNSKNTVYLQMNSLKPEDSAVYYCAAGSRGKVPVGLRYGYYYWGQGTQVTVSS: high polyreactivity
- QVQLVESRGGLVQAGGSLRLSCAASGSIFGWYAMGWYRPAPGKERELVAAINWSGGRTYYADSVKGRFTISRDNAKNTVYLQMNRLKPEDTAVYYCNKVVPGYSAPKYDYWGQGTQVTVSS: high polyreactivity
- QVQLQESGGGLLQADGSLRLSCAASGTIFTQSYMGWYRQAPGKEREFVAGISNGTNTNYGDSVKGRFTISRDNAKNTVYLQMNSLKLEDTAVYYCAVKGFYVDVLAYWGQGTHVTVSS: high polyreactivity
- QVQLVESGGGLVQAGGSLRLSCAASGRTFALNVMGWYRQAPGKERELVAAISRSGGSTYYADSVTGRFTISRDNAKNTVYFQMNSLKPEDTAVYYGAAATHYQSYNRRDYWGEGTQVTVSS: high polyreactivity
- QVQLVESGGGLVQAGGSLRLSCAASGSTFGYAMGWYRQAPGKERELVAAITSTGGSTYYADSVKGRFTISRDNAKNTVYLQKNSLKPEDTAVYDCAADAYWIRSRFLYRMRSNSWGQGTQVTVSS: high polyreactivity
- QVQLVESGGGLVQAGGSLRLSCAASGRTFAWYAMGWYRQAPGKERELVAAITTRGSGTYYADSVKGSFTISRDNAKNTVYLQMHSLKPEDTAVYYCAKDPITATTLDERVYYWGQGTQVTVSS: low polyreactivity
- QVQLVESGGGLVQAGGSLSLSCAASGRIFTQYAMGWSRQAPGKERELVTAINASDGSTYADSVKGRFTISRDNAKNTVYLQMNCLIPEDTAVYYCNVTGGPYDFTRWSEFDHWGQGTQVTVSS: low polyreactivity

polyreactivity (PSR sort gate) for QVQLVESGGGLVQAGGSLRLICAASGSIFGWNAMGWYRQAPGKERELVASITWSGGRTYYADSVKGRFTISRDNAKNTVYLQMNSLKPEDTAVYYCAADYKPTSRSNKYYYWGQGTQVTVSS ?
high polyreactivity

What would you report for QVQLVESGGGLVQAGGSLRLSCAASGSNFYFYAMGWYRQAPGKERELVAAISFTDTSTYYADSVKGRFTISRDNAKNTVYLQMNSLKPEDTAVYYCAADFTQYYYWTRYEYWGQGTQVTVSS ?
high polyreactivity

Proceed to QVQLVESGGGLVQAGGSLRLSCAASGIIFAWYVKGWYRQAPGKERELVAAITQSGGSTFYADSVKWRFTISRDNAKNTVYLQMNSLKPEDTAVYYCNREYWGRGYYRVRGEYDYWGQGTQVTVSS
low polyreactivity

QVQLVQSGAGLVQAGGSLRLSCAPSGFIFRRYDMAWYRQAPGKERELVAAITSSGGTTYYADSVKGRFTNSRDNAKNTVYLQMNSLKPEDTAVYYCNAVRGVYARRSDYWGQGTQVTVSS ?
high polyreactivity
